TARGET_OR_TEST_SYSTEM: SARS-CoV-2 spike protein receptor binding domain (RBD2) (SARS-CoV-2, UniProt P0DTC2 319-537)
ASSAY_INFO: SPR sandwich binning, ligand S01
MEASURE_NAME: normalized analyte binding to RBD2 held by the immobilized ligand
Respond numerically, and do not add a unit to the figure.

Report normalized analyte binding to RBD2 held by the immobilized ligand for S01 IgG1 (antibody, V domains shown, also called 501) VH: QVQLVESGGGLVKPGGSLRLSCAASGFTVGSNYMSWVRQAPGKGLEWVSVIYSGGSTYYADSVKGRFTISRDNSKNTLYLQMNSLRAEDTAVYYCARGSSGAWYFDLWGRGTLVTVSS VL: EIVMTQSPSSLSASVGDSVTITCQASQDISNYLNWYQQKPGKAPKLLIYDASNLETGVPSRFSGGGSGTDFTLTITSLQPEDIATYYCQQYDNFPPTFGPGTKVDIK
-0.03
